Assay: soluble on expression in E. coli; label from the status in PepcDB or PDB records
quantity measured: soluble on expression in E. coli

MLKVDGIDVFYGNIHALKGVSLEVNKGEIVTLIGANGAGKTTLLKTISGLLRPKNGDIVYEGASIAGKAAQTIVKQGISHVPEGRRVFANMTVEENLELGAFLRKDKEGIQQDFAKVFQLFPRLEERRKQLAGTLSGGEQQMLAIGRALMARPKLLLLDEPSMGLAPLLVKTIFRIIQEINESGTTILLVEQNAHMALSIAHRAYVLESGRVVLSGTASELQASEQVKQAYLGGH | soluble
GKVFERCELARTLKRLGMDGYRGISLANWMCLAKWESGYNTRATNYNAGDRSTDYGIFQINSRYWCNDGKTPGAVNACHLSCSALLQDNIADAVACAKRVVRDPQGIRAWVAWRNRCQNRDVRQYVQGCGV | soluble

###

Assay: soluble on expression in E. coli; label from the status in PepcDB or PDB records
quantity measured: soluble on expression in E. coli

MTVRDKREKMTATREEFADAQQEFAAYAADFAADIETKRDVSSLLDAIDALRAEIEETGDAFDAYNQEFAAEVSHLQTEIGEQREALREMRDIFDAYAETFESDVEAKQDVSDLLAAIEDLRAEMDTTHEAFDAYTNEFVTDVAALRDVSDLLAAIEELQLEFGAVQAEFDDYTDDFDADIERFRNAVAEQRDAVAEYREEFHGVEVQAMLNAIADFQQEIDDFRAEFETTEESFDAFARDFYGAEASDSGDALETEAEAPDAGVPEQPAEESVETENEEAELEVVETETDTEDTDTGSIKEVEEELIIEEEIDTEDTREAENAVEEDEETEADEDAPEGMIQCLVCGEYYQAITEPHLQTHDMTIQEYREEYGEDMPLRPDDKA | not soluble
MGSDKIHHHHHHMSDAKLQSVLSSLSQVARQLDALPSDTPAPDSSWVKLNTNENPFPLPEIIMQSAIAALERQYLYPEDDNISLREAAANAYSVSMDQVIAGNGSSELLGLVYRAFLTPGDSVAMMSPGFSFNRKLATLQGAQFVEIEFSKDHSLPMEQLLFGPAKDAKFILLANPNNPTGTFVPVADIERLVAKSDRLIVLDEAYVDFAPENGLRLINRYSNLLVLRTFSKSYAAAGVRVGFGFGHPEIIGRLRNIQNVFNMNVIGQAVGISVLAHRAAYADNHRHIRHERRRVTLALSQLGFSVIPSHANFLLARVPTAQDGSWWQSAFARQKILVAVFPDKGLENYIRVSIGTKEQMDAFLRAASRISRILNMSTPPR | not soluble

###

Assay: soluble on expression in E. coli; label from the status in PepcDB or PDB records
quantity measured: soluble on expression in E. coli

Worked cases, soluble on expression in E. coli given:
MGSDKIHHHHHHMDTLQKTIHNSEYPVVCRSCEARHGGLCSTLTPQQLCDLNRHSSRKKLEAGNELLGQGELVTSYGNILNGVVKLSKMMSDGRQQIVGLQFAPDFLGRPFMAESKMTAEAATDVEICLFPRRIVDRMVTEVPDMERKLHSQSLKELDEARDWMLTLGRKSAQEKVASFLYMIATHIDPENDDKSCFDLPLSRADIADFLGLTIETVSRQMTKLRKEGTIRIENNRHITVPDLDVLSEAAGND | not soluble
MGSDKIHHHHHHMNIKHLDVLRTLLATGSTIAAAKAMGLSQSGVSRMLQQLESDLAITLFARDKGRLIPTPEATVLGRDAQNVLLAIERMSGHAEDLRNGSAGPEIVRIGLPSSMWENFAPAMLIDYVRDFPGVRIETFFETTTAITKLVEERVIDLGFLRIEGETGPGIAIDKVASGESVCVVPKDHSLAELPEITVKHLRNVPLILIGRQRPNRMALDQAFQRAGVKQMVKIETHTNSSACSYVAHGLGVSIISSFYANLYRHLPVVYRPFVPRATQEFGLVRAAGVPLSIAAQALSDALKKQIRLSQEEQ | not soluble
MEKLDGVANTLYVPLYGRIYVSKKFPEYFYDEMALKIEEKFTSGISKGSFEYTNMAYGARYYNMDKMIIKFIEEHKISNIILLGIGLETAYDRITQKCGLGEVNYYGIDLPEVIEIRKKYFGERKQETLIAGDMFEMEWKEQIDTSIPTLLIVSGVFQYFFEDKIIEFIKNLKKEFPYGELVFDTARKKTGLRFANWYIRRTGNLEALMHFYIEDSVDFSKKTDTILVEELTFFKDARELLRKKLNFITKLFMKIADSKRQALIIHLKWLEHHHHHH | not soluble
MTAQSYHPMIKEFPEFYGPLTCPGQFLALLILEFGLNFAEIQKLKWENFNWNFKYLTIEKAGIKRVLPIREKFAIRVKAINNADELFAKSRQFLYTELKKFTNYSSKEIREQYILHQVKAGKSIYELATLLGLTTITTLEKYYRLEHHHHHH | soluble

For each listed entry, give its soluble on expression in E. coli.
1. MSLSDLPDDIFQIIVKKLGDEDFNHLGPIIRSNKRGRDIGLSREILKSANLMGMCLHPPNIFPGQLFRNFFVRCLEFENATAMYYEAIRLIVREENVMGSLFLLNQLVPTYDYATIAYAFFQMCAGRGDLAGTTFDTIFEQNSVSRWGSIYSFELEVKCEALIDTIMDFQPHFGMTFAPDWKFASSDCLSISECPDWHGVEYFCEGCYIYYVALRILEVL
2. MGSDKIHHHHHHMRALDIAATGMSAQQLRVDVISNNIANMSTTGYSPRRADFADLHYQQMVRAGAINASDGTVVPAGVQIGLGVRPAAVTVTWEQGTLGATGGQLDVAIEGRGYLEVTLPSGDNAYTRDGALQRTGDGLIVTNDGFEVNPGITIPDDAQEITINANGEVFASFRGEIQPQLLGQLNMVRFTNDNGLEAIGSNLFLETGASGAPLAGDPGEDGMGTFRQGYVEQSSVDAVREITDLIEAQRGYELNAKVLTAADQILGATTQVR

1: soluble; 2: not soluble

###

Experiment: soluble on expression in E. coli; label from the status in PepcDB or PDB records
quantity measured: soluble on expression in E. coli

MKKEHSPKNKVRHFASVEHLNPEAVAAFVDNELSPAAAHRAKIHLVHCAECREEIHRQRRAADRLRDGNNSDMRPSSDLIAKLQSIAACCPDGPTAEEVPSSPQSLLDKLDGVARNIYKTTKTLREARNEALRQYDR | not soluble
MGSDKIHHHHHHMASFPELPALRRLATLGRSWGLLSDFKYEQTRPDIFYGNLALDTSSLVAALSEDISGAGLNDLKVLDVGGGPGYFAEAFETLGATYFSVEPDVGEMSAAGIDVHGSVRGSGLDLPFLPDSFDVVYSSNVAEHVSAPWELGEEMLRVTRSGGLAILSYTIWLGPFGGHETGLWEHYVGGEFARDRYTKKHGHPPKNVFGESLFNVSCREGLEWGASVGNAELVAAFPRYHPYWVWWMVKVPVLREFAVSNLVLVFKKH | not soluble

###

Assay: soluble on expression in E. coli; label from the status in PepcDB or PDB records
quantity measured: soluble on expression in E. coli

Worked cases, soluble on expression in E. coli given:
MGSDKIHHHHHHMNGNIIVAHGMRHGRQNQALEAFISELVKDDIHHYDIAFLESEHQDLETVMTTLIQSGVDHFKIVPLLIFSAMHYLKDIPNIVHEMKRRYPDIKVEVSEPLGTHPLMRRLIEQRICDALAGDEQQVGVMVVAHGNINGNFTKAHEELQICAQHLQINKPTYARTLYGEISFTHDLESISKRYQKLIVVPLFLYDGRLVNKVKQQMNDMVINTDIHFTPSINFDPILKQIINDRLESLMIPMKI | not soluble
MSLENGYTPKLMYERLSKRLGSLFTFFSEPAFENLLPPPPPEQYRRPLTLVVTLDDFLIHSNWDTQHGWRTGKRPGLDYFLGYLSQYYEIVVFSSNLQMYSDKTVNKLDPYHAYISYALFREACRYKDGKLIKDLSLLNRDLGKTVMIDVDEDSAALQPENSIIVKKWEGQPDEYLISLIPFLEYLATQPVKDVRPILNSYKDKSNEGHHHHHH | soluble
MSDSIQERYLVGYALAAKKQHSFIQPSLIEHSRQRGIDLVKLDPTKSLLEQGKLDCIIHKLYDVYWKENLHEFREKCPGVPVIDLPEAIERLHNRVSMLEVITQLRFPVSDSERFGVPEQVVVMDSSVLSGGGALGELKFPVIAKPLDADGSAKSHKMFLIYDQEGMKILKAPIVLQEFVNHGGVIFKVYVVGDHVKCVKRRSLPDISEEKIGTSKGSLPFSQISNLTAQEDKNIEYGEDRSLEKVEMPPLSFLTDLAKAMRESMGLNLFNFDVIRDAKDANRYLIIDINYFPGYAKMPSYEPVLTEFFWDMVTKKNHV | soluble
KSCCSCCPAECEKCAKDCVCKGGEAAEAEAEKCSCCQ | soluble
MIMASSAAASISMITLRNLSRNHQSHQSTFLGFSRSFHNQRISSNSPGLSTRARSTTSSTGGFFRTICSSSSNDYSRPTKIQELNVYEFNEGDRNSPAVLKLGKKPDQLCLGDLVPFTNKLYTGDLTKRIGITAGLCVLIQHVPEKKGDRFEASYSFYFGDYGHISVQGPYLTYEDTFLAITGGSGVFEGAYGQVKLRQLVYPTKLFYTFYLKGVAADLPVELTGKHVEPSKEVKPAAEAQATQPGATIANFTN | soluble

For each listed entry, give its soluble on expression in E. coli.
1. MGSDKIHHHHHHMSLLKVQNLTKEFPLGFFGKERLKAVDDVSFEIERSRIVSLIGESGSGKTTVGKLILKLIRPSSGQILLNGRDITQIKGRELREYYRKVQGVFQDPFSSFNPIYKIDRVLDMVFEEFFPDTPASERRTKMEEVIASVGMNPREILGKYPHQLSGGQLQRILIARTLLLNVELLIADEIISMLDASTRVDILNLLGDLRERGMSVIFITHDLSLGYYISDETFIMYRGNIVEMGDTEKVFHNPIHPYTKMLLESVPEIDRKWDLSKRFIPELVSSSNAPCKYYDRCPIRDERCLVQKPAMVEVEENHKVLCLKAGD
2. MGSDKIHHHHHHMGNRQRILPLGVQAPATLEGYYPCPNAAALHAVLKLVAEPQGLCLYLYGPGGVGKSHLLLGAASALAGWTPYMDCGDVPQLFNRIKDLEGFSSLVAAPLLCLDNIEVWAGQRDKETFLFDLYNERMSNGRPMLLAGRAAPRFLDWALPDWASRASACLQVALRLPDDTERMAILQEMAQRRGLQIGVEAAHYLLRHHARDPRTLDGLLTILDAGSWEHQREVTIPFIRLCLGAEKP
3. MSANFTDKNGRQSKGVLLLRTLAMPSDTNANGDIFGGWIMSQMDMGGAILAKEIAHGRVVTVAVESMNFIKPISVGDVVCCYGQCLKVGRSSIKIKVEVWVKKVASEPIGERYCVTDAVFTFVAVDNNGRSRTIPRENNQELEKALALISEQPLLEHHHHHH
4. MGSDKIHHHHHHQSFTPGEIWPDNHQVHINAHGGGILYENGTYYWFGEHKTEGEAGNLANVGVHCYSSDDLYHWKDCGIALSVIENDPGHPISKGCILERPKVIYNPLTKKYVMWFHLEPKGAGYSGALSGIALSDRVTGPYTFLKAVRPNAGSWPINVLPIHKTTRRPSAEEERQCTGGSLPAHPDSLNILGRDMEQGQMARDMNLFVDDDGKAYHIYSSEENSTLHIAELDPTYTGYTGKYIRVFINRFMEAPAMFKKDGNYYLIMSGCSGWNPNAARSAIASSIWGEWKELGNPCIGQDADLTFHSQSTYILPVQGKKNQFIYMGDRWTPQNAIDGRYIWLPIHFEGPKPIIEWKDSWTLD
5. YLYVYKGVYATDEDVPVNPLTGERLRMGGNTSTQAYFKAGDPIWVDVNGDYIIDEKDKVIVGNSQPRMTGGISINLRYKAFSINTNCSFTLRRDIINKALADRFRAYGTPVAGKVNLTGSGALTPIEAYNFWTEDNIYAQYPNPFDYTRSSIIQPFRYDQTLFMEDGSYFKINGISVAYTIPKKMLDFFRISRCQLNFSMNNIYTFSKYSGINPENVNNLGYDTSGGYPNGRTVTFGVSMDF
6. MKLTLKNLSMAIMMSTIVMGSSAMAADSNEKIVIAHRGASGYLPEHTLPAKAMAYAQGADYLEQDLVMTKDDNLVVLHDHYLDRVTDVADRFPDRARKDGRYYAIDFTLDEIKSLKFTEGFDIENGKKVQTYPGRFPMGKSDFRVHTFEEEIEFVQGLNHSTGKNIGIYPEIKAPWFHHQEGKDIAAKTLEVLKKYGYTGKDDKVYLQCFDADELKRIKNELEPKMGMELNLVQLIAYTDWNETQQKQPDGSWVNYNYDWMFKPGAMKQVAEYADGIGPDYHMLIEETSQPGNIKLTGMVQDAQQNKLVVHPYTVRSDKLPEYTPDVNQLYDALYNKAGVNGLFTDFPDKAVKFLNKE

1: not soluble; 2: not soluble; 3: not soluble; 4: not soluble; 5: not soluble; 6: soluble
